- Tested on: KB-3-1
- Method: Cytotoxic Profiling of Annotated Libraries Using Quantitative High-Throughput Screening (AID 1296008); further: on the % scale 0 is the no-effect control and ±100 the full control effect; nearly all actives have a fitted effect of over 60% in size
- Condition info: Five cell lines viability, CellTiter-Glo ATP luminescence, 48-72 h; active compounds read low
Records with an inconclusive call do not appear.
Quantity name: max response (%)
# output: bare number, implied unit %

Before answering, review these 3 worked examples.
Compound	Value units	max response
CCC(C)C(=O)OC1CC(C)C=C2C=CC(C)C(CCC(O)CC(O)CC(=O)O)C21 (stereo not given)	%	5.43
Cc1[nH]c2ccccc2c1C1=C(NCCc2ccc(F)cc2)C(=O)N(C)C1=O	%	-15.2
Cc1nc2sc(C(=O)NCc3ccncc3)c(N)c2c(C)c1Cl	%	-3.45

Complete the entry with the larger response for C[C@@H]1C(=O)O[C@H](C)[C@H]1CC(=O)[C@](C)(O)[C@H]1CC[C@@]2(O)C3=CC(=O)[C@@H]4C[C@@H](O)[C@@H](O)C[C@]4(C)C3CC[C@]12C (stereo not given in full)
-2.99

Complete the entry with the larger response for Cc1c(F)cc(C(=O)NC2CC2)cc1-c1c(F)cn2c(C(C)(C)C)nnc2c1F
-2.87

Complete the entry with the larger response for COc1ccc([C@@]2(O)c3c(ccc(CC=C(C)C)c3O)NC(=O)[C@@H]2OC)cc1
8.3

Complete the entry with the larger response for C[C@@H]1O[C@@H](O[C@H]2[C@H](OC(=O)[C@]34CCC(C)(C)C[C@H]3C3=CCC5[C@@]6(C)C[C@H](O)[C@H](O[C@@H]7O[C@H](CO)[C@@H](O)[C@H](O)[C@H]7O)[C@@](C)(CO)C6[C@H](O)C[C@@]5(C)[C@]3(C)C[C@H]4O)OC[C@H](O)[C@@H]2O)[C@H](O)[C@H](O)[C@H]1O[C@@H]1OC[C@@H](O)[C@H](O[C@H]2OC[C@](O)(CO)[C@H]2O)[C@H]1O (stereo not given in full)
3.95

Complete the entry with the larger response for C[C@@]12C[C@]3(O)O[C@H](O1)[C@]1(COC(=O)c4ccccc4)[C@H]3C[C@@]12O[C@@H]1O[C@H](CO)[C@@H](O)[C@H](O)[C@H]1O
8.38
